molecular target: Muscarinic acetylcholine receptor M2 (Homo sapiens, UniProt P08172); format: functional, cell-based; note: assay procedure not described here
Sequence (P08172 whole entry): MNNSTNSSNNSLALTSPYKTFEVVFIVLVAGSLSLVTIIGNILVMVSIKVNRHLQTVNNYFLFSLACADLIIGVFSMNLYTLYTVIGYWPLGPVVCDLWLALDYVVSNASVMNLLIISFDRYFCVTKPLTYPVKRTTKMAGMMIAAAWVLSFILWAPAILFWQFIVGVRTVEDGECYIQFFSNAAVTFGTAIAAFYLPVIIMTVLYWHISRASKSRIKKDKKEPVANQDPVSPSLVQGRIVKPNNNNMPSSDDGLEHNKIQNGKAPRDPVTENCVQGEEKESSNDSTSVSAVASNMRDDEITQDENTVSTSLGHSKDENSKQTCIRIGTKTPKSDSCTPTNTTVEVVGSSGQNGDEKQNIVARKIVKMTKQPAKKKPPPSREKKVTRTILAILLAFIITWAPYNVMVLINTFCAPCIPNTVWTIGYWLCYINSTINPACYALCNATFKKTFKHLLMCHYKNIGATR
Measurement name: AC50

[[record]]
compound = "CN1CCN(C2=Nc3ccccc3Sc3ccc(Cl)cc32)CC1 [CLOTHIAPINE]"
target_system = "Muscarinic acetylcholine receptor M2 (Homo sapiens, UniProt P08172)"
measured = "6.7 µM"

[[record]]
compound = "CS(=O)(=O)c1ccc(C2=C(c3ccccc3)C(=O)OC2)cc1 [ROFECOXIB]"
target_system = "Muscarinic acetylcholine receptor M2 (Homo sapiens, UniProt P08172)"
measured = "> 30 µM"

[[record]]
compound = "Nc1nc(/C(=C/CC(=O)O)C(=O)N[C@@H]2C(=O)N3C(C(=O)O)=CCS[C@H]23)cs1 [CEFTIBUTEN]"
target_system = "Muscarinic acetylcholine receptor M2 (Homo sapiens, UniProt P08172)"
measured = "> 30 µM"

[[record]]
compound = "Cc1cccc(C(C)c2cnc[nH]2)c1C (centres undefined) [MEDETOMIDINE]"
target_system = "Muscarinic acetylcholine receptor M2 (Homo sapiens, UniProt P08172)"
measured = "> 10 µM"

[[record]]
compound = "CCCCN1C[C@H](O)[C@@H](O)[C@H](O)[C@H]1CO"
target_system = "Muscarinic acetylcholine receptor M2 (Homo sapiens, UniProt P08172)"
measured = "> 30 µM"

[[record]]
compound = "CN1C(=O)CCS(=O)(=O)C1c1ccc(Cl)cc1 (centres undefined) [CHLORMEZANONE]"
target_system = "Muscarinic acetylcholine receptor M2 (Homo sapiens, UniProt P08172)"
measured = "> 10 µM"

[[record]]
compound = "Cn1nnc2c(C(N)=O)ncn2c1=O [TEMOZOLOMIDE]"
target_system = "Muscarinic acetylcholine receptor M2 (Homo sapiens, UniProt P08172)"
measured = "> 30 µM"

[[record]]
compound = "CCCCc1ncc(/C=C(\\Cc2cccs2)C(=O)O)n1Cc1ccc(C(=O)O)cc1 [EPROSARTAN]"
target_system = "Muscarinic acetylcholine receptor M2 (Homo sapiens, UniProt P08172)"
measured = "> 10 µM"

[[record]]
compound = "Clc1ccc(C(c2ccccc2Cl)C(Cl)Cl)cc1 (centres undefined) [MITOTANE]"
target_system = "Muscarinic acetylcholine receptor M2 (Homo sapiens, UniProt P08172)"
measured = "> 10 µM"

[[record]]
compound = "CN1C(C(=O)Nc2ccccn2)=C(O)c2sc(Cl)cc2S1(=O)=O [LORNOXICAM]"
target_system = "Muscarinic acetylcholine receptor M2 (Homo sapiens, UniProt P08172)"
measured = "> 10 µM"

[[record]]
compound = "CN(C)/N=N/c1[nH]cnc1C(N)=O [DACARBAZINE]"
target_system = "Muscarinic acetylcholine receptor M2 (Homo sapiens, UniProt P08172)"
measured = "> 10 µM"

[[record]]
compound = "CCOC(=O)[C@H](CCc1ccccc1)N[C@@H](C)C(=O)N1C(=O)N(C)C[C@H]1C(=O)O"
target_system = "Muscarinic acetylcholine receptor M2 (Homo sapiens, UniProt P08172)"
measured = "> 30 µM"

[[record]]
compound = "N[C@@H]1[C@H]2CN(c3nc4c(cc3F)c(=O)c(C(=O)O)cn4-c3ccc(F)cc3F)C[C@@H]12 [TROVAFLOXACIN]"
target_system = "Muscarinic acetylcholine receptor M2 (Homo sapiens, UniProt P08172)"
measured = "> 30 µM"

[[record]]
compound = "CN1C(=O)OC(C)(C)C1=O [TRIMETHADIONE]"
target_system = "Muscarinic acetylcholine receptor M2 (Homo sapiens, UniProt P08172)"
measured = "> 10 µM"

[[record]]
compound = "Cc1cccc(Nc2ccccc2C(=O)O)c1C [MEFENAMIC ACID]"
target_system = "Muscarinic acetylcholine receptor M2 (Homo sapiens, UniProt P08172)"
measured = "> 10 µM"

[[record]]
compound = "O=C(OCC(O)CO)c1ccccc1Nc1ccnc2cc(Cl)ccc12 (centres undefined) [GLAFENINE]"
target_system = "Muscarinic acetylcholine receptor M2 (Homo sapiens, UniProt P08172)"
measured = "> 10 µM"

[[record]]
compound = "COc1ccc2c3c1O[C@H]1C(=O)CC[C@@]4(O)[C@@H](C2)N(C)CC[C@]314 [OXYCODONE]"
target_system = "Muscarinic acetylcholine receptor M2 (Homo sapiens, UniProt P08172)"
measured = "> 30 µM"

[[record]]
compound = "C#C[C@]1(O)CC[C@H]2[C@@H]3[C@H](C)CC4=C(CCC(=O)C4)[C@H]3CC[C@@]21C [TIBOLONE]"
target_system = "Muscarinic acetylcholine receptor M2 (Homo sapiens, UniProt P08172)"
measured = "> 30 µM"

[[record]]
compound = "CCCC(C)C1(CC)C(=O)NC(=O)NC1=O (centres undefined) [PENTOBARBITAL]"
target_system = "Muscarinic acetylcholine receptor M2 (Homo sapiens, UniProt P08172)"
measured = "> 10 µM"

